- Test Target: T1, recombinant integrin α4β1 (R&D Systems, 5397-A3-050) (UniProt P13612 34-970; P05556 21-728)
- T1 construct: bought; coated on the ELISA plate; also called a4b1; α4β1 integrin
- T1 sequence (P13612 34-970, chain 1 of 2): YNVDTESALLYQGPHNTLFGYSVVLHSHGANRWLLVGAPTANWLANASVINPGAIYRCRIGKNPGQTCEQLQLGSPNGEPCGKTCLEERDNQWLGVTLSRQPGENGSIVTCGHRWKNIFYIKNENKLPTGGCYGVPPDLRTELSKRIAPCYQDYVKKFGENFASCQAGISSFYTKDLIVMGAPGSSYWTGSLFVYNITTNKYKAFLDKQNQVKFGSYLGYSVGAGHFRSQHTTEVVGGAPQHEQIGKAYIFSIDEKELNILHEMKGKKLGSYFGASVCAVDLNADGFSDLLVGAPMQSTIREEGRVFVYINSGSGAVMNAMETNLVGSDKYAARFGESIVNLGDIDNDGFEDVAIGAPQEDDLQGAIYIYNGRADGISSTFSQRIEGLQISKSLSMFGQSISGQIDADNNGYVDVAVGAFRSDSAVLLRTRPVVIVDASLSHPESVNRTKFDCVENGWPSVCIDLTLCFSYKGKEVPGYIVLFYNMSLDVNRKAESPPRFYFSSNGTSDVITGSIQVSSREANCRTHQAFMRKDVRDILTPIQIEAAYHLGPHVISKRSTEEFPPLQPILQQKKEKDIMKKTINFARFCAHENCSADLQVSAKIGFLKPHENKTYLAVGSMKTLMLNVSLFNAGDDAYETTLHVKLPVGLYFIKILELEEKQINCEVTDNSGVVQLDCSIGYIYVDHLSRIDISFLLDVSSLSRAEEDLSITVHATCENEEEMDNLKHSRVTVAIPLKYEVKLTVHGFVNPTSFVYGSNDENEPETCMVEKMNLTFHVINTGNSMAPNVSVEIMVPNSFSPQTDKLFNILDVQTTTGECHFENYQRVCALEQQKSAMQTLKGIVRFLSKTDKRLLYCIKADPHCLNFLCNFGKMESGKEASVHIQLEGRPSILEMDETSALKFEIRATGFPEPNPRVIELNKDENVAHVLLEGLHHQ
- T1 sequence (P05556 21-728, chain 2 of 2): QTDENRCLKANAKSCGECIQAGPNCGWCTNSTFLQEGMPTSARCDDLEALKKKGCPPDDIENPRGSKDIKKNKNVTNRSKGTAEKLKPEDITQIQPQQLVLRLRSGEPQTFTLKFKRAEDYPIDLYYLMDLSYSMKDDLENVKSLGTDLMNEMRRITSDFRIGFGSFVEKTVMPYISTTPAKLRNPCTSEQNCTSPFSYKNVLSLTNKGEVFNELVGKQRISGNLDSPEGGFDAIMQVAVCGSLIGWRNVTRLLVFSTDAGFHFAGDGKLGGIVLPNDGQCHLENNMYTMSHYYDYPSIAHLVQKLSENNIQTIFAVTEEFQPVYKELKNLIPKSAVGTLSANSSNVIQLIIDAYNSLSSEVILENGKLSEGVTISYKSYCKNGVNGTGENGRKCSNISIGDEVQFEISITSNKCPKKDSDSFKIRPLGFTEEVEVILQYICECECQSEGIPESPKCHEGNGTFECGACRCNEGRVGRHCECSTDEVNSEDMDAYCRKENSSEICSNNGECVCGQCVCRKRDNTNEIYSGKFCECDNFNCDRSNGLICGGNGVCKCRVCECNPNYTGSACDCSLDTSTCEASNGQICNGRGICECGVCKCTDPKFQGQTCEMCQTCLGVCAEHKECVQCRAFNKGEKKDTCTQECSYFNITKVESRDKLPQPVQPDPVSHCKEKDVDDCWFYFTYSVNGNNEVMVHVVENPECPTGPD
- Assay Protocol: competition ELISA, VCAM-Fc on coated α4β1
*1 amine or outer side, *2 acyl side, *3 side chain or, on linkers, in order; H or OH if unused. Bridges are numbered along the chain shown (N, C = ends). Primed or numbered codes have the meaning given here. Where no end group is shown, it is not given here. [ ]: non-standard residue; d: D form. The star is where a group is joined. formula (I) linker(4) = -N(R1)-C(R2)(R3)-C(R4)(R5)- with R1 H, R2 H, R3 CH3 (S), R4 H, R5 C(O)-NH-tert-butyl (S), N(R1) amide-bonded to C-terminal Thr C=O, C(R4)(R5) bonded to Pro N, C[C@H](N[*:1])[C@@H](C(=O)NC(C)(C)C)[*:2]; Thr(OEt) = O-ethyl-threonine, CCO[C@H](C)[C@H](N[*:1])C(=O)[*:2]; Thr(OMe) = O-methyl-threonine, CO[C@H](C)[C@H](N[*:1])C(=O)[*:2]; Dap′ = 2,3-diaminopropionic acid (Cbz on Nbeta); d4Pal = N[C@H](Cc1ccncc1)C(=O)O; Cha = N[C@@H](CC1CCCCC1)C(=O)O; Pen = CC(C)(S)[C@H](N)C(=O)O; Ac5c = NC1(C(=O)O)CCCC1; Nva = CCC[C@H](N)C(=O)O; Cbz = O=C(OCc1ccccc1)*
Reported pIC50 values follow for various binders
Please express pIC50 as -log10 of the molar concentration.

Binder	Property	Measured Result
PFLD[Thr(OMe)] (bridge N-C; not fully specified (bridges); printed as Pro Phe Leu Asp X, macrocycle of formula (I); R1 H, R2 H, R3 CH3, R4 H, R5 C(O)-NH-tert-Butyl) [Compound No. 40]	pIC50	6.92
PYLDT (bridge (positions not given here); not fully specified (bridges); also: macrocycle of formula (I), R1 H, R2 H, R3 CH2-S-Ph, R4 H, R5 C(O)-NH-tert-Butyl, macrocycle of formula (I); R1 H, R2 H, R3 CH2-S-Ph, R4 H, R5 C(O)-NH-tert-Butyl) [Compound No. 3]	pIC50	6.32
P[Dap′](Cbz)LDT (bridge N-C; not fully specified (bridges); also: macrocycle closed by formula (I) linker between N- and C-terminus (R1 H, R2 H, R3 CH3, R4 H, R5 C(O)NH-tBu), macrocycle of formula (I); R1 H, R2 H, R3 CH3, R4 H, R5 C(O)-NH-tert-Butyl) [Compound No. 59]	pIC50	6.21
P[Ac5c]LDT (bridge (positions not given here); not fully specified (bridges); printed as Pro X Leu Asp Thr; also: N-to-C macrocycle closed by formula (I) linker -NH-CH(CH3)-CH(C(O)NH-tBu)-, macrocycle of formula (I); R1 H, R2 H, R3 CH3, R4 H, R5 C(O)-NH-tert-Butyl) [Compound No. 88]	pIC50	6.78
P[d4Pal]LDT (bridge (positions not given here); not fully specified (bridges), macrocycle of formula (I); R1 H, R2 H, R3 CH3, R4 H, R5 C(O)-NH-tert-Butyl) [Compound No. 62]	pIC50	6.94
PYLD[Pen] (bridge N-C; not fully specified (bridges), macrocycle of formula (I); R1 H, R2 H, R3 CH3, R4 H, R5 C(O)-NH-tert-Butyl) [Compound No. 55]	pIC50	6.92
P[Cha]LDT (linker N-C via formula (I) linker(4), macrocycle of formula (I); R1 H, R2 H, R3 CH3, R4 H, R5 C(O)-NH-tert-Butyl) [Compound No. 7]	pIC50	6.72
P[Nva]LDT (bridge N-C; not fully specified (bridges); also: macrocycle closed by formula (I) linker between N- and C-terminus (R1 H, R2 H, R3 CH3, R4 H, R5 C(O)NH-tBu), macrocycle of formula (I); R1 H, R2 H, R3 CH3, R4 H, R5 C(O)-NH-tert-Butyl) [Compound No. 71]	pIC50	6.09

Fill in pIC50 for record PFLD[Thr(OEt)] (bridge N-C; not fully specified (bridges); printed as Pro Phe Leu Asp X, macrocycle of formula (I); R1 H, R2 H, R3 CH3, R4 H, R5 C(O)-NH-tert-Butyl) [Compound No. 41] 6.97
